B1: FLAG-TSC22D2 (full length, wild type) [human] / HA-NRBP1 WT [human] (parent complex)
chain 1: MSKMPAKKKSCFQITSVTTAQVATSITEDTESLDDPDESRTEDVSSEIFDVSRATDYGPEEVCERSSSEETLNNVGDAETPGTVSPNLLLDGQLAAAAAAPANGGGVVSARSVSGALASTLAAAATSAPAPGAPGGPQLAGSSAGPVTAAPSQPPTTCSSRFRVIKLDHGSGEPYRRGRWTCMEYYERDSDSSVLTRSGDCIRHSSTFDQTAERDSGLGATGGSVVVVVASMQGAHGPESGTDSSLTAVSQLPPSEKMSQPTPAQPQSFSVGQPQPPPPPVGGAVAQSSAPLPPFPGAATGPQPMMAAAQPSQPQGAGPGGQTLPPTNVTLAQPAMSLPPQPGPAVGAPAAQQPQQFAYPQPQIPPGHLLPVQPSGQSEYLQQHVAGLQPPSPAQPSSTGAAASPATAATLPVGTGQNASSVGAQLMGASSQPSEAMAPRTGPAQGGQVAPCQPTGVPPATVGGVVQPCLGPAGAGQPQSVPPPQMGGSGPLSAVPGGPHAVVPGVPNVPAAVPAPSVPSVSTTSVTMPNVPAPLAQSQQLSSHTPVSRSSSIIQHVGLPLAPGTHSAPTSLPQSDLSQFQTQTQPLVGQVDDTRRKSEPLPQPPLSLIAENKPVVKPPVADSLANPLQLTPMNSLATSVFSIAIPVDGDEDRNPSTAFYQAFHLNTLKESKSLWDSASGGGVVAIDNKIEQAMDLVKSHLMYAVREEVEVLKEQIKELVERNSLLERENALLKSLSSNDQLSQLPTQQANPGSTSQQQAVIAQPPQPTQPPQQPNVSSA
chain 2: not shown

variants of: B1; assay: co-immunoprecipitation (HA-IP) with immunoblot densitometry; HEK293 cells stably expressing HA-NRBP1, 36 hours after transfection; N = 2, n = 2; read off a plot
measurement-type: response

# count of solved cases: 4
| mutant-label | endpoint-result |
| --- | --- |
| chain 1 R161A, chain 1 F162A | ~0.35 |
| chain 1 R179E | ~0.09 |
| chain 1 R161A | ~0.76 |
| chain 1 R161E, chain 1 F162A, chain 1 R179E | ~0.02 |

// response lookup, key: chain 1 R179A
~0.22
